assayed-system: T1, BMPRII receptor-Fc fusion (UniProt Q13873 27-151, limits assumed)
T1 construct: BMP receptor-Fc fusion used at 5 ug/mL
T1 sequence (looked up): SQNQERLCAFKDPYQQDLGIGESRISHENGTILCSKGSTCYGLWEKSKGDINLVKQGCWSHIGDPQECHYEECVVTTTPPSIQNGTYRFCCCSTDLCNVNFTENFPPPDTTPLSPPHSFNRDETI
protocol-details: ELISA-like plate assay, captured BMP-7 from conditioned media, receptor-Fc detection
measurement-name: BMPRII binding (relative to wild type = 1.0)

Would you kindly share the measured BMPRII binding (relative to wild type = 1.0) for BMP-7 variant Q53E (ligand, In conditioned media; numbering on mature BMP-7) STGGKQRSQNRSKTPKNQEALRMASVAENSSSDQRQACKKHELYVSFRDLGWEDWIIAPEGYAAYYCEGECAFPLNSYMNATNHAIVQTLVHFINPETVPKPCCAPTQLNAISVLYFDDSSNVILKKYRNMVVRACGCH ?
0.72 relative to wild type

Query: BMPRII binding (relative to wild type = 1.0); subject: BMP-7 variant S77T (ligand, In conditioned media; numbering on mature BMP-7) STGGKQRSQNRSKTPKNQEALRMASVAENSSSDQRQACKKHELYVSFRDLGWQDWIIAPEGYAAYYCEGECAFPLNTYMNATNHAIVQTLVHFINPETVPKPCCAPTQLNAISVLYFDDSSNVILKKYRNMVVRACGCH
0.97 relative to wild type

Endpoint output: BMPRII binding (relative to wild type = 1.0) of BMP-7 variant L90P (ligand, In conditioned media; numbering on mature BMP-7) STGGKQRSQNRSKTPKNQEALRMASVAENSSSDQRQACKKHELYVSFRDLGWQDWIIAPEGYAAYYCEGECAFPLNSYMNATNHAIVQTPVHFINPETVPKPCCAPTQLNAISVLYFDDSSNVILKKYRNMVVRACGCH . Value?
0.17 relative to wild type

Consider the binder shown here: BMP-7 variant L90G (ligand, In conditioned media; numbering on mature BMP-7) STGGKQRSQNRSKTPKNQEALRMASVAENSSSDQRQACKKHELYVSFRDLGWQDWIIAPEGYAAYYCEGECAFPLNSYMNATNHAIVQTGVHFINPETVPKPCCAPTQLNAISVLYFDDSSNVILKKYRNMVVRACGCH What is its recorded BMPRII binding (relative to wild type = 1.0)?
0.28 relative to wild type
